Just for reference, patent US20140134737 is where these values come from.

# TARGET_UNDER_TEST: T1, FOXP1 forkhead domain (canonical, exon 18) (Homo sapiens, UniProt Q9H334 SEQ:465-555)
# T1 sequence: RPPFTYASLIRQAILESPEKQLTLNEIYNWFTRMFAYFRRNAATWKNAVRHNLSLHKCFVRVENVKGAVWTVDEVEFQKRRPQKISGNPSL
# MEASUREMENT_NOTES: EMSA; no appreciable shift
# TEST_CONTEXT: tags: GST fusion; label: radiolabeled
PROPERTY_MEASURED: binding result

CCACTCAA x2 mutant (dsDNA) DNA 1: CCACTCAACCCCACTCAA DNA 2: TTGAGTGGGGTTGAGTGG    no binding
ATGCAGGA x2 mutant (dsDNA) DNA 1: ATGCAGGACCATGCAGGA DNA 2: TCCTGCATGGTCCTGCAT    no binding
CTATCCAA x2 mutant (dsDNA) DNA 1: CTATCCAACCCTATCCAA DNA 2: TTGGATAGGGTTGGATAG    no binding
AACCCCAA x2 mutant (dsDNA) DNA 1: AACCCCAACCAACCCCAA DNA 2: TTGGGGTTGGTTGGGGTT    no binding
